Molecular target: T1, human TREM2 (human, UniProt Q9NZC2 19-230)
T1 construct: on THP-1 WT cells and M2a-like macrophages (endogenous) and on CHO or HEK293T cells overexpressing human TREM2 with DAP12; also called hTREM2
T1 sequence: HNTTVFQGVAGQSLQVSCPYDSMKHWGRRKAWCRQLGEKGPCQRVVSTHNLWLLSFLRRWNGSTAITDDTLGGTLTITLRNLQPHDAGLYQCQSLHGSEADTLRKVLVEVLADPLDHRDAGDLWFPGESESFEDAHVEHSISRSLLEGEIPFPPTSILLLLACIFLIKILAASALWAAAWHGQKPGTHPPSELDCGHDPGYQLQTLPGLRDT
Assay: flow cytometry, M2a-like macrophages
Measure Name: Fold over isotype (fold)
The figure you give is taken to be in fold; do not add the unit.

| Binder | Unit Text | Fold over isotype |
| --- | --- | --- |
| EOS006181 (antibody, V domains shown) VH: EVQLVESGGGLVQPGRSLRLSCTASGFTFDDHAMSWFRQAPGKGLEWVGFIGSKAYGGTTEYTASVKGRFTISRDGSKSIAYLQMNSLKTEDTAVYYCARGKRYSYTYWTPAFDVWGQGTMVTVSS VL: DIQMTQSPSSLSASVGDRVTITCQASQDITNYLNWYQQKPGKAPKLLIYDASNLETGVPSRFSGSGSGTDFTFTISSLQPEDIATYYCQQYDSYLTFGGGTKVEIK | fold | 9.3 |

// returns reported Fold over isotype for input EOS006174 (antibody, V domains shown) VH: EVQLVESGGGLVQPGRSLRLSCTASGFTFGEYTMSWFRQAPGKGLEWVGFIGSKAYAGTTEYTASVKGRFTISRDGSKSIAYLQMNSLKTEDTAVYYCARGKRYSYGGWVPAFDVWGQGTMVTVSS VL: DIQMTQSPSSLSASVGDRVTITCQASQDITNYLNWYQQKPGKAPKLLIYDASNLETGVPSRFSGSGSGTDFTFTISSLQPEDIATYYCQEYDSYLAFGGGTKVEIK 14.9

Likewise for EOS006162 (antibody, V domains shown) VH: QVQLVQSGAEVKKPGSSVKVSCKASGGTFSSYAISWVRQAPGQGLEWMGGIIPISGTANYAQKFQGRVTITADESTSTAYMELSSLRSEDTAVYYCARTQEYTLFDSWGQGTMVTVSS VL: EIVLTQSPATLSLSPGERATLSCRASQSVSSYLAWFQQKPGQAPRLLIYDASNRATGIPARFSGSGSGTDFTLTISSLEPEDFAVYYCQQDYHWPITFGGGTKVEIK ? 10.8

Likewise for EOS006172 (antibody, V domains shown) VH: QVQLVQSGAEVKKPGSSVKVSCKASGGTFSSYAISWVRQAPGQGLEWMGGIIPISGTANYAQKFQGRVTITADESTSTAYMELSSLRSEDTAVYYCARTQEYTLFDIWGQGTMVTVSS VL: EIVLTQSPATLSLSPGERATLSCRASQSVSSYLAWFQQKPGQAPRLLIYDASNRATGIPARFSGSGSGTDFTLTISSLEPEDFAVYYCQQDFHWPITFGGGTKVEIK ? 9.8

Likewise for EOS006177 (antibody, V domains shown) VH: QVQLQESGPGLVKPSGTLSLTCAVSGGSISDSAWWSWVRQPPGKGLEWIGEIYHDADTNYNPSLKSRVTISVDKSKNQFSLKLSSVTAADTAVYYCARDTKYWGGMDVWGQGTTVTVSS VL: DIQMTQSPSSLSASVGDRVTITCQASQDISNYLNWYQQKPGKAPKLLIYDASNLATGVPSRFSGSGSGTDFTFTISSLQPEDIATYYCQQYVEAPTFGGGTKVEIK ? 17.3
